Record form. Attribute: Percent Effect. Fill in for each entry.
# Test system: Wolbachia pipientis
# assay_protocol: Anti-Wolbachia Cell-Based Screen
# Type: functional
# Parameters: scale not given: in the data most compounds retested in dose-response had high values
# experimental_context: 5 µM
The campaign covered roughly 48,000 compounds. About 13,000 (27%) showed an effect of 50% or more. The list shows a part of the results.
Answers are plain numbers, in %.

Known Percent Effect results, listed for orientation:
Cc1cc(N2CCC(C(=O)N(C)C)CC2)nc(-c2ccncc2)n1: 121.6
CCNC(=O)CN1CCN(c2ccnc3c(F)ccc(F)c23)CC1: 11.86
Cc1cc(C)n(-c2cncc(N3CCC(C(=O)N(C)C)CC3)n2)n1: -4.811
Cc1nnc([C@@H]2CC[C@@H]3[C@@H](CCN3S(=O)(=O)C3CC3)O2)o1: 10.23
CC(=O)NCC1CCN(c2ccnc3ccc(Br)cc23)CC1: 3.515

Go through the list and state Percent Effect for each entry.
1. Cc1cc(NCC(=O)NCC(F)(F)F)nc(-c2ccncc2)n1
2. O=C(NC1CCN(c2cccc(C(F)(F)F)n2)CC1)C1CC1
3. Cc1cc(N2CCC(N(C)C(=O)c3ccccc3)CC2)nc(C)n1
4. COc1ccccc1OCCCN1C(=O)CCNC1=O
5. COc1cccn(CC(=O)N(C)CCCOc2c(C)cccc2C)c1=O
6. CC(=O)NCC1CCN(c2cc(C)nc(-c3ccncc3)n2)CC1

1. 6.905
2. -2.588
3. -0.5132
4. 100.1999
5. -81.04
6. 110

====

# Tested on: Wolbachia pipientis
# assay_protocol: Anti-Wolbachia Cell-Based Screen
# Assay type: functional
# Parameters: scale not given: in the data most compounds retested in dose-response had high values
# experimental_context: 5 µM
In all, about 48,000 compounds went through this assay and about 13,000 (27%) showed an effect of 50% or more. Some of the results follow.
Record form. Attribute: Percent Effect. Fill in for each entry.
Give bare numbers, in %.

Known Percent Effect results, listed for orientation:
COc1ccccc1CC(=O)N1CCC(NCc2cccnc2)CC1: -3.091
Cc1noc(C)c1CNC(=O)N1CCC(C(O)c2ccccc2)CC1 (stereo unspecified): -2.263
CC(C)n1cnnc1CN(C)Cc1ccc(CN(C)S(C)(=O)=O)o1: -6.062
COc1ccc(Br)cc1CC(=O)N1CCCC1: 26.87
Cc1csc2c(=O)n3c(nc12)CCN(C(=O)c1ccnn1C)CC3: 126.7
COc1ccccc1CC(=O)N1CC[C@@]2(CCCO2)[C@@H](OC)C1: 3.075
COc1ccc(CC(=O)N2CC[C@H](CO)[C@H](O)C2)c(OC)c1: 2.348
CNC(=O)c1ccc(-n2c(COCC(=O)O)nc3c(C)cccc32)o1: -7.772
CCCN1CCCn2nc(CNC(=O)CCc3scnc3C)cc2C1: 1.883
Cc1nc(C)c(CC(=O)N2CCC(Oc3ccccc3)CC2)c(=O)[nH]1: 3.027

Which Percent Effect value belongs to `COc1ccccc1CC(=O)N1CC[C@H](O)[C@]2(CCCO2)C1` ? 123.7

====

# Test system: Wolbachia pipientis
# assay_protocol: Anti-Wolbachia Cell-Based Screen
# Format: functional
# Parameters: scale not given: in the data most compounds retested in dose-response had high values
# experimental_context: 5 µM
The campaign covered roughly 48,000 compounds. About 13,000 (27%) showed an effect of 50% or more. The list shows a part of the results.
endpoint: Percent Effect (%)
Answers are plain numbers, in %.

COCc1noc(-c2nn(-c3ccc(F)cc3)c3c2CCC3)n1: -5.396

Go through the list and state Percent Effect for each entry.
1. CC(C)(C)C(O)CCNC(=O)c1ccc(F)cc1Cl (centres undefined)
2. Cc1cc2n(n1)CC(CNCc1cnn(-c3ccccc3)c1)CN2 (centres undefined)
3. Cc1ncc(CNC(=O)CCOc2ccccc2)c(C2CCCN2C)n1 (centres undefined)
4. CC(Cn1cccn1)NCc1csc(-c2ccc(F)cc2)n1 (centres undefined)

1. 15.76
2. -14.73
3. -4.417
4. 3.098

Go through the list and state Percent Effect for each entry.
1. CCCc1nc(C(=O)N2CCCn3nc(CCC(=O)O)cc3C2)cs1
2. O=C([C@@H]1COC[C@H]2CN(CC3CCCC3)C[C@H]21)N1CCOCC1
3. Cc1occc1C(=O)NCCOc1ccc(C(F)(F)F)cn1
4. COc1ccc(C(O)CN2CC(n3cc(C)cn3)C2)cc1 (centres undefined)
5. O=C(NCCNc1ccc(C(F)(F)F)cn1)c1ccc(Br)cc1F
6. Cc1nc2c(c(=O)[nH]1)CCN(Cc1ccc3c(c1)CCCN3C)C2
7. COCC1CN(Cc2ccoc2)Cc2cn(CC3CCOCC3)nc21 (centres undefined)

1. -10.82
2. -6.22
3. -9.163
4. -26.31
5. 1.294
6. 94.44
7. -9.673
